Target: HLA-A*02:02
Test: IEDB peptide-MHC binding, purified MHC/competitive/radioactivity; bounds were set here for any values at or beyond the usual limits of such assays
Conditions: source organism: Vaccinia virus WR
Result Type: IC50 (µM)

[
  {
    "Construct Sequence": "YLLGDSDSVA",
    "Number": 0.002
  },
  {
    "Construct Sequence": "RAAIDRQVSV",
    "Number": 0.626
  },
  {
    "Construct Sequence": "KQNKFGDSPL",
    "Number": 0.09
  },
  {
    "Construct Sequence": "MICCDSRIVV",
    "Number": 0.665
  },
  {
    "Construct Sequence": "AAAATCALV",
    "Number": 0.015
  },
  {
    "Construct Sequence": "SLVKESMASL",
    "Number": 0.994
  },
  {
    "Construct Sequence": "SLGKSPLPSL",
    "Number": 0.0041
  },
  {
    "Construct Sequence": "SIPISELSRL",
    "Number": 0.252
  },
  {
    "Construct Sequence": "AVANCVRNL",
    "Number": 0.066
  },
  {
    "Construct Sequence": "RTNDLTALL",
    "Number": 0.0037
  },
  {
    "Construct Sequence": "SICLDYIIV",
    "Number": 1.46
  },
  {
    "Construct Sequence": "PASKKESVI",
    "Number": 1.35
  },
  {
    "Construct Sequence": "PASISSVLT",
    "Number": 1.38
  },
  {
    "Construct Sequence": "ITTLLNETA",
    "Number": 0.414
  },
  {
    "Construct Sequence": "YVHEGVSYEV",
    "Number": 0.013
  },
  {
    "Construct Sequence": "RMPTDMLKL",
    "Number": 0.95
  },
  {
    "Construct Sequence": "GTIILNKIV",
    "Number": 1.19
  },
  {
    "Construct Sequence": "RLYNSLKRFT",
    "Number": 1.06
  },
  {
    "Construct Sequence": "LLTDTIESA",
    "Number": 0.017
  },
  {
    "Construct Sequence": "DIMTSTRTI",
    "Number": 3.45
  },
  {
    "Construct Sequence": "ITRLEVIGLT",
    "Number": 2.21
  },
  {
    "Construct Sequence": "YVIRHVDGKI",
    "Number": 0.621
  },
  {
    "Construct Sequence": "PVLEKKVCAI",
    "Number": 0.541
  },
  {
    "Construct Sequence": "NTTTFITVLT",
    "Number": 1.96
  },
  {
    "Construct Sequence": "IAIFNNRNLA",
    "Number": 3.35
  },
  {
    "Construct Sequence": "ELSRLRYNL",
    "Number": 0.00093
  },
  {
    "Construct Sequence": "TVGMLIYSM",
    "Number": 0.49
  },
  {
    "Construct Sequence": "EMKYALINL",
    "Number": 3.06
  },
  {
    "Construct Sequence": "FVATFRDML",
    "Number": 2.35
  },
  {
    "Construct Sequence": "NITRLEVIGL",
    "Number": 0.907
  },
  {
    "Construct Sequence": "FISSFLLPLT",
    "Number": 0.039
  },
  {
    "Construct Sequence": "TLNEYKQLYT",
    "Number": 0.144
  },
  {
    "Construct Sequence": "ALYYVHSLL",
    "Number": 0.026
  },
  {
    "Construct Sequence": "IASGQRCHFI",
    "Number": 0.526
  },
  {
    "Construct Sequence": "TIGTIAGGV",
    "Number": 0.298
  },
  {
    "Construct Sequence": "HIKTIAVSV",
    "Number": 3.08
  },
  {
    "Construct Sequence": "MLTNAISSRV",
    "Number": 0.053
  },
  {
    "Construct Sequence": "ELWARISSSL",
    "Number": 0.175
  },
  {
    "Construct Sequence": "NLEELTTVFI",
    "Number": 0.418
  }
]
